target: human V1a receptor (Homo sapiens, UniProt P37288)
Sequence (P37288 whole entry): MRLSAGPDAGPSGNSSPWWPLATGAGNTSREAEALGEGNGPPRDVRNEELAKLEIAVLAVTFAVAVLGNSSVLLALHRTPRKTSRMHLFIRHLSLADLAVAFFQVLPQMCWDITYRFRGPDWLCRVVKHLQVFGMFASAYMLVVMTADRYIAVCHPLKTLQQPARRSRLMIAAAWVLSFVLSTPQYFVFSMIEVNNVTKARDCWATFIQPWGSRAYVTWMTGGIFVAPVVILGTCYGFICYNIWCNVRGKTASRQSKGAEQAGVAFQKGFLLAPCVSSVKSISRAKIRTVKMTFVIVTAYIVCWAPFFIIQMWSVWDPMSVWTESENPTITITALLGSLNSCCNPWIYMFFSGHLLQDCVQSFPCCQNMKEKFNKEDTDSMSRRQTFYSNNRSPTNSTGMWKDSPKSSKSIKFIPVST
Threshold 2 nM: Ki strictly smaller gives 1, otherwise 0.

Reference set, count: 3
>>> cat("O=C(c1cn(CCN2CCOCC2)c2cc(Cl)ccc12)N1CCC2(CC1)OCc1ccccc12 [Example 256]")
0
>>> cat("Cc1c(C(=O)N2CCC3(C=Cc4ccccc43)CC2)c2ccccc2n1Cc1ccccc1 [Example 1]")
0
>>> cat("CN(C)CCn1cc(C(=O)N2CCC3(CC2)OC(=O)c2cc(F)ccc23)c2ccc(Cl)cc21 [Example 111]")
0

Query: Decide: Ki of CNCCNC(=O)Cn1cc(C(=O)N2CCC3(CC2)OCc2ccccc23)c2ccc(Cl)cc21 [Example 251] strictly below 2 nM?
Reply: 0

Query: Decide: Ki of O=C(c1cn(Cc2ccccc2)c2ccccc12)N1CCC2(CC1)OCc1ccccc12 [Example 68] strictly below 2 nM?
Reply: 0

Query: Decide: Ki of CN1CCN(C(=O)c2[nH]c3cc(Cl)ccc3c2C(=O)N2CCC3(CC2)OC(=O)c2cc(F)ccc23)CC1 [Example 32] strictly below 2 nM?
Reply: 0

Query: Decide: Ki of Cc1[nH]c2cc(Cl)ccc2c1C(=O)N1CCC2(CC1)OCc1ccccc12 [Example 277] strictly below 2 nM?
Reply: 0

Query: Decide: Ki of CC(C)(C)OC(=O)N1CCOC(Cn2cc(C(=O)N3CCC4(CC3)OCc3ccccc34)c3ccc(Cl)cc32)C1 (centres unmarked) [Example 247] strictly below 2 nM?
Reply: 0

Query: Decide: Ki of O=C(Cn1cc(C(=O)N2CCC3(CC2)OC(=O)c2ccccc23)c2ccc(Cl)cc21)c1ccc(F)c(F)c1 [Example 154] strictly below 2 nM?
Reply: 1

Query: Decide: Ki of O=C(c1cn(Cc2ccncc2)c2cc(Cl)ccc12)N1CCC2(CC1)OCc1ccccc12 [Example 228] strictly below 2 nM?
Reply: 1

Query: Decide: Ki of O=C1OC2(CCN(C(=O)c3cn(Cc4cccc(F)c4)c4cc(Cl)ccc34)CC2)c2ccc(F)cc21 [Example 143] strictly below 2 nM?
Reply: 1

----------
Record type: pKi measurement. Applies to: human V1a receptor (Homo sapiens)
For clarity, pKi is expressed as the negative log10 of concentration in mol/L.

Query: // lookup pKi | system=human V1a receptor (Homo sapiens) | key= `CN1CCC[C@H](Cn2cc(C(=O)N3CCC4(CC3)OCc3ccccc34)c3ccc(Cl)cc32)C1`
Reply: 8.85

Query: // lookup pKi | system=human V1a receptor (Homo sapiens) | key= CN1CCC(Cn2cc(C(=O)N3CCC4(CC3)OCc3ccccc34)c3ccc(Cl)cc32)C1 (stereo not drawn)
Reply: 8.74

Query: // lookup pKi | system=human V1a receptor (Homo sapiens) | key= `NCCn1cc(C(=O)N2CCC3(CC2)OCc2ccccc23)c2ccc(Cl)cc21`
Reply: 8.11
